target: Peroxisome proliferator-activated receptor alpha (Homo sapiens); test: Agonist activity at human recombinant PPARalpha expressed in HepG2 cells co-transfected with pGL3-PPRE3-TK-luc reporter assessed as […] after 24 hrs by luciferase based transactivation assay; assay type: functional, cell-based
measurement name: EC50 (µM)
Number only, in µM; omit the unit.

Req: Please tell me: EC50 of "C[C@H]1[C@H](C)CC[C@]2(C(=O)O)CC[C@]3(C)C(=CC[C@@H]4[C@@]5(C)CC[C@H](O)C(C)(C)[C@@H]5CC[C@]43C)[C@H]12" , system Peroxisome proliferator-activated receptor alpha (Homo sapiens)?
Resp: 41.3

* * *

Target: Peroxisome proliferator-activated receptor alpha (Homo sapiens, UniProt Q07869)
Sequence (Q07869 whole entry): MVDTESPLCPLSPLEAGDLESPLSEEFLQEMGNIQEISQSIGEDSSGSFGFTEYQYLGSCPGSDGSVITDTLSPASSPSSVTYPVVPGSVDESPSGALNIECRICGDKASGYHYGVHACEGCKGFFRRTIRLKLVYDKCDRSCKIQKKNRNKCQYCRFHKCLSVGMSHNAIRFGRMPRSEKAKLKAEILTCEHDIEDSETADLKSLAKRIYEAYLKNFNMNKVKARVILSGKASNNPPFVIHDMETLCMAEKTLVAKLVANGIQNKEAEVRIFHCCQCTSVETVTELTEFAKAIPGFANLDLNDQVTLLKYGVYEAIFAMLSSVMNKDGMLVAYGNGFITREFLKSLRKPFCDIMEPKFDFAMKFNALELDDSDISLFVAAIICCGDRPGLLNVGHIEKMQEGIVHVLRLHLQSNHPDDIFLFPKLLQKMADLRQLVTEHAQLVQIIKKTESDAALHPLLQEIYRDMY
Experiment: Binding affinity to histidine-tagged human PPARalpha-LBD assessed as recruitment of co-activator peptide fluorescein-labeled PGC1alpha after 2 hrs by TR-FRET assay
measurement name: pEC50
Scale note: pEC50 = -log10(concentration in M).

Req: Query pEC50 on Peroxisome proliferator-activated receptor alpha (Homo sapiens, UniProt Q07869) for "CC(C)(Oc1ccc(C(=O)c2ccc(Cl)cc2)cc1)C(=O)O"
Resp: 5.35
